# Study System: Human PKMYT1 (Homo sapiens, UniProt Q99640)
# Construct: Human PKMYT1 75-362 was cloned as a TEV cleavable 6xHis fusion; 6xHis (TEV cleavable) (cleaved yes); made in house; host or cells: bacterial cells
# Sequence (Q99640 75-362): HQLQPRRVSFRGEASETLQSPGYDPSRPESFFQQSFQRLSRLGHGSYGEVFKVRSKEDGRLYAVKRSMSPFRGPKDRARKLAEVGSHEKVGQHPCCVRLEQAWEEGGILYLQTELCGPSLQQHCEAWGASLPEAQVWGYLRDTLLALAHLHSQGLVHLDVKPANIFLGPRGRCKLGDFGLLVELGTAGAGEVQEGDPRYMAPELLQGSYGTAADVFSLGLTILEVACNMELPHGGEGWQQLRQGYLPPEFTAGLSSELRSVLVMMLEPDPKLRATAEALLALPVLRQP
# Method: PKMYT1 biochemical ADP-Glo enzymatic assay
# Condition: ADP-Glo; 15 nM PKMYT1 kinase domain, 500 µM ATP, 60 minutes at 26° C.; banded
Measurement Label: IC50

Examples with their reported IC50 follow.
* Cc1ccc(O)c(C)c1NC(=O)c1cnc(NCC2CCN(C(=O)CN3CCOCC3)CC2)s1 [BAA-217] | 50 to 1000 nM
* Cc1ccc(O)c(C)c1NC(=O)c1cnc(Nc2cc(C(C)(C)C)nn2-c2ccccc2)s1 [BAA-359] | 1000 to 11000 nM
* Cc1ccc(O)c(C)c1NC(=O)c1cnc(Nc2ccn(CC(=O)N3CCC(F)(F)C3)n2)s1 [BAA-176] | < 50 nM

-- ask Quick check: IC50 of Cc1ccc(O)c(C)c1NC(=O)c1cnc(Nc2nccc3ccc(F)cc23)s1 [BAA-303] ?
-- reply < 50 nM
